target-or-system: Sialic acid-binding Ig-like lectin 9 (Homo sapiens) (UniProt Q9Y336)
Sequence (Q9Y336 whole entry): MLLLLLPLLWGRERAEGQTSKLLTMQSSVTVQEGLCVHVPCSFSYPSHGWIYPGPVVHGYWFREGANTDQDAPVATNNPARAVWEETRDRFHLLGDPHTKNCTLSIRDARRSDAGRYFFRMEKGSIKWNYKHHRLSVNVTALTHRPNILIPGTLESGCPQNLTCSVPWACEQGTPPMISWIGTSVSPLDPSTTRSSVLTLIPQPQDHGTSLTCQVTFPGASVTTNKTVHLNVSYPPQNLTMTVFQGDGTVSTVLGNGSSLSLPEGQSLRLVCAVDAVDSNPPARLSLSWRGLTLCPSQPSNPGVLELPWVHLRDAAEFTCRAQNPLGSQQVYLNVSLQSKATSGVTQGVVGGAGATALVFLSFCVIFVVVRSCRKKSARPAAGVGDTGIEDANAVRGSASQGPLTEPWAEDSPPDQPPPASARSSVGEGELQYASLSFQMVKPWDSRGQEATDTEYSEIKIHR
assay-notes: Hs-Siglec9 ALPHAscreen SOP 20170721
Parameters: scale not given: direction of the effect not stated beside the values
condition-notes: 10 µM
reported-endpoint: Percent Effect (%)
Quick reminder: number only, in %, skip the unit.

Worked set:
- compound: "O=c1nc(SCc2cccnc2)c2c(n1CCO)CCC2"
  display-unit: "%"
  Percent Effect: 7.9
- compound: "CN(Cc1nnc(-c2ccco2)o1)CC1CCCN1c1cccnn1 (centres undefined)"
  display-unit: "%"
  Percent Effect: -13.5
- compound: "COCCN(C)CC(=O)N1C[C@H]2CC[C@@H]1CN(C(=O)c1ccncc1)C2"
  display-unit: "%"
  Percent Effect: 3.27
- compound: "CCn1cnnc1CNC(=O)N1CCC(Cc2cccnc2)CC1"
  display-unit: "%"
  Percent Effect: 1.86
- compound: "CCOc1cc(C(=O)N2CCCC(c3noc(C)n3)C2)ccn1 (centres undefined)"
  display-unit: "%"
  Percent Effect: 13.6

So for N#Cc1ccnc(N2CCN(CC(O)c3cccc(F)c3)CC2)c1 (centres undefined) , the logged Percent Effect turned out to be -0.828

Entry O=C(NCc1cccnc1)C1=NOC2(CCN(S(=O)(=O)C3CC3)C2)C1 (centres undefined) ; Percent Effect = -2.3

Noted for O=C(Nc1cccc(CN2CCOC2=O)c1)N1CCSCC1 : its Percent Effect reads 9.65

====

target-or-system: Tyrosyl-tRNA synthetase, putative (Trypanosoma cruzi (strain CL Brener)) (UniProt Q4DSP6)
Sequence (Q4DSP6 as listed by the source): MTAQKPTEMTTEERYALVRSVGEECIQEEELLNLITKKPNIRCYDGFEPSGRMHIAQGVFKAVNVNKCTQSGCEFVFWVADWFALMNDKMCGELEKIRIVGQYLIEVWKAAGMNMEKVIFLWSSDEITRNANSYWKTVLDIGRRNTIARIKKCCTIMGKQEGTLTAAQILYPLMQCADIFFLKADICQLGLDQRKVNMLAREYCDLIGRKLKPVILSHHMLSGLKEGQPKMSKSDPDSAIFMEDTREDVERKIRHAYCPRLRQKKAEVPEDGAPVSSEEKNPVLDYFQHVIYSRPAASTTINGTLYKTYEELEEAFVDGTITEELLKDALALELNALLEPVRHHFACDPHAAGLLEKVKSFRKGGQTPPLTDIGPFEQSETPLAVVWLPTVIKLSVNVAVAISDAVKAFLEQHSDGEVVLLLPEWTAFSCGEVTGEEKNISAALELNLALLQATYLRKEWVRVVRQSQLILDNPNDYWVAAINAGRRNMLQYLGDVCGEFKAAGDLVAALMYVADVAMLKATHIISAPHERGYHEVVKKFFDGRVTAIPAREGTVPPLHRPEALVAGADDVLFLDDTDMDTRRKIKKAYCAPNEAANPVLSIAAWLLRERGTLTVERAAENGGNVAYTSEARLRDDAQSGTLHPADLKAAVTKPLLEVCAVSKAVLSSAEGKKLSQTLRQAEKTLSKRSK
assay-notes: Trypanosoma cruzi tyrosyl tRNA synthetase (TcYRS) SOP
Format: functional
Parameters: scale not given: direction of the effect not stated beside the values
condition-notes: 30 µM
Percent Effect values by entry
Return type: number; implicit unit %.

Worked examples follow.
- compound: "CC(O)CN1CCC(CNCc2cccc(Br)c2)CC1 (stereo unspecified)"
  Percent Effect / %: -1.24
- compound: "CCOC(=O)CCC(=O)N1CCC(Oc2ccc(C(F)(F)F)cn2)CC1"
  Percent Effect / %: 11.5
- compound: "Cc1ccc(N2CCCC(NCc3cscn3)C2)nn1 (stereo unspecified)"
  Percent Effect / %: 23.5

Tested on Tyrosyl-tRNA synthetase, putative (Trypanosoma cruzi (strain CL Brener)) (UniProt Q4DSP6), the item CC(C)n1cc(S(=O)(=O)N2CCCCC2)cn1 showed Percent Effect equal to 15.4

Assay Tyrosyl-tRNA synthetase, putative (Trypanosoma cruzi (strain CL Brener)) (UniProt Q4DSP6), sample CC(Sc1nnnn1C1CCOCC1)C(=O)NC1CCCCC1 (stereo unspecified) , Percent Effect read: 16.1

GET /values?item= CCS(=O)(=O)N1CCc2ccc(NC(=O)Nc3ccc(F)cc3F)cc21 &system= Tyrosyl-tRNA synthetase, putative (Trypanosoma cruzi (strain CL Brener)) (UniProt Q4DSP6) returns Percent Effect: 6.41

The compound O=C(c1ccco1)N1CCOCC2(C1)CN(c1ccccc1)C(=O)CO2 (stereo unspecified) , when measured on Tyrosyl-tRNA synthetase, putative (Trypanosoma cruzi (strain CL Brener)) (UniProt Q4DSP6), yielded Percent Effect of -2.5

Log: Tyrosyl-tRNA synthetase, putative (Trypanosoma cruzi (strain CL Brener)) (UniProt Q4DSP6), compound CCN(Cc1ccc2c(c1)OCCO2)C(=O)NCc1cc[nH]n1 , Percent Effect = 11.8

Entry Cc1ccc(N2CCCc3sc(C(=O)NCc4cccnc4)nc32)nn1 , tested on Tyrosyl-tRNA synthetase, putative (Trypanosoma cruzi (strain CL Brener)) (UniProt Q4DSP6), has a reported Percent Effect of 6.17

Response field Percent Effect (Tyrosyl-tRNA synthetase, putative (Trypanosoma cruzi (strain CL Brener)) (UniProt Q4DSP6)) for item Cc1nnc2n1CCN(CCC(=O)Nc1sccc1C#N)C2 : 18.5

# lookup: Cc1noc(C)c1CN1CC[C@H]2OCC[C@@H](C(=O)NCC3CC3)[C@@H]2C1 on Tyrosyl-tRNA synthetase, putative (Trypanosoma cruzi (strain CL Brener)) (UniProt Q4DSP6), Percent Effect = 12.5
